The reader will find IC50 measurements below, all made with PIK3CA (human) (UniProt P42336).
Sequence (P42336 whole entry, looked up): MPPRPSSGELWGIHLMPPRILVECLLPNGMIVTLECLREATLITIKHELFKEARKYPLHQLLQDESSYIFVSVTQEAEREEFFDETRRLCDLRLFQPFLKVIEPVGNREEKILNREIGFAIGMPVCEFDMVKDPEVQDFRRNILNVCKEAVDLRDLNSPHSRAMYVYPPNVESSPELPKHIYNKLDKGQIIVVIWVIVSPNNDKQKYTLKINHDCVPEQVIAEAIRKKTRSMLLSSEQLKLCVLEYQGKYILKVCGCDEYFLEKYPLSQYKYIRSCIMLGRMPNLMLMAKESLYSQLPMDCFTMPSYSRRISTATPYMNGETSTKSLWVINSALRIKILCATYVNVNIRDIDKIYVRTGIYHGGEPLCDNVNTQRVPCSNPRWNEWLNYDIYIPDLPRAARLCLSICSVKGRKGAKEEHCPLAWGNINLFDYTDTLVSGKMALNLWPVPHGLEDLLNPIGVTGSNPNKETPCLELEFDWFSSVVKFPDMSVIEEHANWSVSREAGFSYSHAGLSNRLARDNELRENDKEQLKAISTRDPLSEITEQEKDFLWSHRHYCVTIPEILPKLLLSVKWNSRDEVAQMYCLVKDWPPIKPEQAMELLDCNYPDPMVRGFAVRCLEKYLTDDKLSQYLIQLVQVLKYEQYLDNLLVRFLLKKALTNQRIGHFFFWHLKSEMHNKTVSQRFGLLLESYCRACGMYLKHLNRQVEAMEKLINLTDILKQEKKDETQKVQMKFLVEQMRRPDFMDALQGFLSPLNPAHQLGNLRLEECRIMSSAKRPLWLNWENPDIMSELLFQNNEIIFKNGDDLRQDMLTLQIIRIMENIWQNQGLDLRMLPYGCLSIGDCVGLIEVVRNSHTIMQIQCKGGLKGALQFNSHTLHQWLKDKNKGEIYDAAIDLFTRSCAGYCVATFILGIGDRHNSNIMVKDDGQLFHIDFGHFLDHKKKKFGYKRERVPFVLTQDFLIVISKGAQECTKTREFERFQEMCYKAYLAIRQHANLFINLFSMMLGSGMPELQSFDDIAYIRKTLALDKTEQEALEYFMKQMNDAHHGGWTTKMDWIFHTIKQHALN

Item: "Cn1ccc2c3nc(-c4cccc(C#N)c4)nc(N4CCOCC4)c3ccc21" Test system: PIK3CA (human) (UniProt P42336) Read-out: IC50 Value: ?
4.28 µM

Okay, now this compound:
Item: "Cn1ccc2c3nc(-c4cccc(C(N)=O)c4)nc(N4CCOCC4)c3ccc21" Test system: PIK3CA (human) (UniProt P42336) Read-out: IC50 Value: ?
2.56 µM
